- protocol.notes: in vitro
- condition.set: human, liver microsomes
observation.type: microsomal CLint at 0.5 h, 1 µM (µL/min/mg)

{"smiles.data": "COCC[C@@H](NC(=N)NC(=O)Cc1ccc(OC)c(OC)c1)C(=O)Nc1cc(S(N)(=O)=O)ccc1C", "measured.result": 43.1}

1: CNS(=O)(=O)c1ccc(C)c(NC(=O)[C@@H](CC2CCCCC2)NC(=N)NC(=O)Cc2ccc(OC)c(C(F)(F)F)c2)c1
2: CNS(=O)(=O)c1ccc(C)c(NC(=O)[C@@H](CC2CCCCC2)NC(=N)NC(=O)Cc2ccc(Cl)c(Cl)c2)c1
stdin: Parameter metric = microsomal CLint at 0.5 h, 1 µM. Return the lower-valued option from 1 and 2 . Record your answer as the label of the chosen record.
stdout: 1
(1: 188 µL/min/mg, 2: 336 µL/min/mg)

a: COc1ccc(CC(=O)NC(=N)N[C@H](CC2CCCCC2)C(=O)Nc2cc(S(N)(=O)=O)ccc2C)cc1OC
b: CNS(=O)(=O)c1ccc(C)c(NC(=O)[C@@H](CC2CCCCC2)NC(=N)NC(=O)Cc2ccc(F)c(OC)c2)c1
stdin: // max by microsomal CLint at 0.5 h, 1 µM over [ a , b ] Record your answer as the label of the chosen record.
stdout: b

P: COc1ccc(CC(=O)NC(=N)N[C@@H](C(=O)Nc2cc(S(N)(=O)=O)ccc2C)C2=CCC=CC2)cc1OC
Q: CCN(CC)S(=O)(=O)c1ccc(C)c(NC(=O)[C@@H](CC2CCCCC2)NC(=N)NC(=O)Cc2ccc(OC)c(OC)c2)c1
stdin: // max by microsomal CLint at 0.5 h, 1 µM over [ P , Q ] Record your answer as the label of the chosen record.
stdout: Q
(Q: 221 µL/min/mg, P: 138 µL/min/mg)

P: Cc1ccc(S(=O)(=O)N(C)C)cc1NC(=O)[C@@H](CC1CCCCC1)NC(=N)NC(=O)Cc1ccc2ccccc2c1
Q: CC[C@@H](NC(=N)NC(=O)Cc1ccc(OC)c(OC)c1)C(=O)Nc1cc(S(N)(=O)=O)ccc1C
R: Cc1ccc(S(=O)(=O)N(C)C)cc1NC(=O)[C@@H](CC1CCCCC1)NC(=N)NC(=O)Cc1ccc(Cl)c(Cl)c1
stdin: Arrange the 3 molecules from largest to smallest microsomal CLint at 0.5 h, 1 µM. Labels, requested order.
stdout: R, P, Q

###

- protocol.notes: in vitro
- condition.set: human, liver microsomes
observation.type: microsomal CLint at 0.5 h, 1 µM (µL/min/mg)

{"smiles.data": "COc1ccc(CC(=O)NC(=N)N[C@H](Cc2ccccc2)C(=O)Nc2cc(S(N)(=O)=O)ccc2C)cc1OC", "microsomal CLint at 0.5 h, 1 µM / µL/min/mg": 191}

a: Cc1ccc(S(=O)(=O)N(C)C)cc1NC(=O)[C@@H](CC1CCCCC1)NC(=N)NC(=O)Cc1cccc(C#N)c1
b: COC[C@@H](NC(=N)NC(=O)Cc1ccc(OC)c(OC)c1)C(=O)Nc1cc(S(N)(=O)=O)ccc1C
c: CNS(=O)(=O)c1ccc(C)c(NC(=O)[C@@H](CC2CCCCC2)NC(=N)NC(=O)Cc2ccc(OC)c(OC)c2)c1
stdin: List the 3 entries from lowest microsomal CLint at 0.5 h, 1 µM to highest microsomal CLint at 0.5 h, 1 µM value. Labels, requested order.
stdout: b, c, a
